# TESTED SYSTEM: human V1a receptor (Homo sapiens, UniProt P37288)
# Construct: expressed in transfected cells; host or cells: HEK293 cells, transiently transfected; membranes prepared
# Sequence (P37288 whole entry): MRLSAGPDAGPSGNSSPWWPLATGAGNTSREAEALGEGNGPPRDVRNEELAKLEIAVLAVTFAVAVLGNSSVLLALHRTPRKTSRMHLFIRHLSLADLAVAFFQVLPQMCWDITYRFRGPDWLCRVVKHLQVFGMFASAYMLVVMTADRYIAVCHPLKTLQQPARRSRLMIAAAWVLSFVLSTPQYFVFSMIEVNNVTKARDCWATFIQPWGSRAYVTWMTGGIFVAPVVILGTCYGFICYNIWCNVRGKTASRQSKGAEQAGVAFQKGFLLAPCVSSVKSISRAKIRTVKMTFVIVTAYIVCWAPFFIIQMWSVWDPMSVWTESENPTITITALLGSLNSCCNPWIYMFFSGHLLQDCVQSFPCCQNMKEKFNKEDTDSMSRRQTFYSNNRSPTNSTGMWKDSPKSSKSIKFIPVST
# TEST DESCRIPTION: human V1a receptor binding studies (3H-Vasopressin SPA, membranes of transfected HEK293 cells)
Structures can show the parent of a compound that is named as a salt.
# reported pKi; entries follow
# log scale: pKi equals minus log10 of the concentration in mol/L

Please review the following examples before continuing.
>  <COMPOUND>
CN1Cc2cc(Cl)ccc2-n2c(nnc2N2CCC3(CC2)c2ccccc2CS3(=O)=O)C1

>  <TESTED SYSTEM>
human V1a receptor (Homo sapiens, UniProt P37288)

>  <pKi>
7.32

$$$$
>  <COMPOUND>
CN1Cc2cc(Cl)ccc2-n2c(nnc2N2CCC3(CC2)OCc2ccccc23)C1

>  <TESTED SYSTEM>
human V1a receptor (Homo sapiens, UniProt P37288)

>  <pKi>
8.62

$$$$
>  <COMPOUND>
CN1Cc2cc(Cl)ccc2-n2c(nnc2N2CCC3(CC2)SCc2ccccc23)C1

>  <TESTED SYSTEM>
human V1a receptor (Homo sapiens, UniProt P37288)

>  <pKi>
8.76

$$$$
>  <COMPOUND>
CC(C)(C)OC(=O)N1Cc2cc(Cl)ccc2-n2c(nnc2[C@H]2CC[C@@]3(CC2)OCc2ccccc23)C1

>  <TESTED SYSTEM>
human V1a receptor (Homo sapiens, UniProt P37288)

>  <pKi>
8.34

$$$$
>  <COMPOUND>
CN1Cc2cc(Cl)ccc2-n2c(nnc2[C@H]2CC[C@@]3(CC2)OCc2ccccc23)C1

>  <TESTED SYSTEM>
human V1a receptor (Homo sapiens, UniProt P37288)

>  <pKi>
8.55

$$$$

q: Supply pKi value. Item: Clc1ccc2c(c1)CNCc1nnc([C@H]3CC[C@]4(CC3)OCc3ccccc34)n1-2 [Example 5, hydrochloride]
a: 7.79

q: Supply pKi value. Item: Clc1ccc2c(c1)CN(Cc1ccccn1)Cc1nnc(N3CCC4(CC3)OCc3ccccc34)n1-2
a: 8.74

----------
# TESTED SYSTEM: human V1a receptor (Homo sapiens)
# Construct: expressed in transfected cells; host or cells: HEK293 cells, transiently transfected; membranes prepared
# TEST DESCRIPTION: human V1a receptor binding studies (3H-Vasopressin SPA, membranes of transfected HEK293 cells)
# CONDITION LABEL: 3H-Vasopressin displacement, HEK293 cell membranes, Ki calculated from IC50 by Cheng-Prussoff equation; read-out: pKi hV1a (converted)
READOUT KIND: Ki (nM)
Hi! Could you send only the number? It should be in nM, unit omitted.

>  <COMPOUND>
CC(C)(C)OC(=O)N1Cc2cc(Cl)ccc2-n2c(nnc2N2CCC3(CC2)OCc2ccc(F)cc23)C1

>  <SCALE UNIT>
nM

>  <Ki>
10.2

$$$$
>  <COMPOUND>
CN(C)CC(=O)N1Cc2cc(Cl)ccc2-n2c(nnc2N2CCC3(CC2)OCc2ccccc23)C1

>  <SCALE UNIT>
nM

>  <Ki>
6.76

$$$$
>  <COMPOUND>
CC(=O)N1Cc2cc(Cl)ccc2-n2c(nnc2N2CCC3(CC2)OCc2ccccc23)C1

>  <SCALE UNIT>
nM

>  <Ki>
4.17

$$$$

q: Using human V1a receptor (Homo sapiens) as the test system, report measured Ki of CC1OC2(CCN(c3nnc4n3-c3ccc(Cl)cc3CN(C(=O)OC(C)(C)C)C4)CC2)c2ccccc21 (racemic) .
a: 10.7

----------
# TESTED SYSTEM: human V1a receptor (Homo sapiens, UniProt P37288)
# Construct: expressed in transfected cells; host or cells: HEK293 cells, transiently transfected; membranes prepared
# TEST DESCRIPTION: human V1a receptor binding studies (3H-Vasopressin SPA, membranes of transfected HEK293 cells)
Counter-ions that a name gives are not always drawn.
# reported Ki; entries follow
Hi! Could you send only the number? It should be in µM, unit omitted.

Please review the following examples before continuing.
>  <COMPOUND>
Clc1ccc2c(c1)CNCc1nnc([C@H]3CC[C@@]4(CC3)OCc3ccccc34)n1-2 [Example 2, hydrochloride]

>  <Ki / µM>
0.0398

$$$$
>  <COMPOUND>
CN1Cc2cc(Cl)ccc2-n2c(nnc2N2CCC3(CC2)COCc2ccccc23)C1

>  <Ki / µM>
0.00219

$$$$
>  <COMPOUND>
CN1Cc2cc(Cl)ccc2-n2c(nnc2N2CCC3(CC2)OC(=O)c2ccccc23)C1

>  <Ki / µM>
0.0123

$$$$

q: Supply Ki value. Item: CN1Cc2cc(Cl)ccc2-n2c(nnc2N2CCC3(CC2)OCCc2ccccc23)C1
a: 0.0105

These entries and their values trace back to patent US8664216B2.
